Quick reference: MIC of the listed items.
Test system: Escherichia coli
Assay: Antimicrobial activity against Escherichia coli ATCC 11229 by agar overlay technique
Assay type: functional
Express it in µg; write the number only.

# example entries with known answers
INSERT INTO results (smiles_data, recorded_measurement) VALUES
  ('O=C(N[C@H](CO)[C@H](O)c1ccc([N+](=O)[O-])cc1)C(Cl)Cl', 0.001),
  ('CC1=CC(=O)[C@H](OC(=O)c2ccoc2)[C@@]2(C)[C@@H](OC(=O)c3ccoc3)C[C@@H]3C[C@]12OC3(C)C', 50),
  ('C=C(C)[C@@H]1CC[C@]2(C)[C@H](CC=C3[C@@H]4C[C@](C)(C(=O)O)CC[C@]4(C)CC[C@]32C)[C@@]1(C)CCC(=O)O', 0.01);

Return reported MIC for target or system Escherichia coli, item `C[C@@H]1CC(=O)[C@H](OC(=O)c2ccoc2)[C@@]2(C)[C@@H](OC(=O)c3ccoc3)C[C@@H]3C[C@]12OC3(C)C` .
10

Return reported MIC for target or system Escherichia coli, item `C[C@@H]1CC[C@H](OC(=O)c2ccoc2)[C@@]2(C)[C@@H](OC(=O)c3ccoc3)C[C@@H]3C[C@]12OC3(C)C` .
10

Return reported MIC for target or system Escherichia coli, item `C[C@H]1C(=O)CC[C@@H]2[C@]1(C)CC[C@H]1[C@@]2(C)CC[C@@]2(C)[C@H]3C[C@@](C)(C(=O)O)CC[C@]3(C)CC[C@]12C` .
0.01

Recorded values, source ChEMBL document CHEMBL1165985.
